Just for reference, patent US11986471B2 is where these values come from.

Target: PRMT5 (Homo sapiens, UniProt O14744)
Construct: purchased Viva (custom protein)
Sequence (O14744 whole entry): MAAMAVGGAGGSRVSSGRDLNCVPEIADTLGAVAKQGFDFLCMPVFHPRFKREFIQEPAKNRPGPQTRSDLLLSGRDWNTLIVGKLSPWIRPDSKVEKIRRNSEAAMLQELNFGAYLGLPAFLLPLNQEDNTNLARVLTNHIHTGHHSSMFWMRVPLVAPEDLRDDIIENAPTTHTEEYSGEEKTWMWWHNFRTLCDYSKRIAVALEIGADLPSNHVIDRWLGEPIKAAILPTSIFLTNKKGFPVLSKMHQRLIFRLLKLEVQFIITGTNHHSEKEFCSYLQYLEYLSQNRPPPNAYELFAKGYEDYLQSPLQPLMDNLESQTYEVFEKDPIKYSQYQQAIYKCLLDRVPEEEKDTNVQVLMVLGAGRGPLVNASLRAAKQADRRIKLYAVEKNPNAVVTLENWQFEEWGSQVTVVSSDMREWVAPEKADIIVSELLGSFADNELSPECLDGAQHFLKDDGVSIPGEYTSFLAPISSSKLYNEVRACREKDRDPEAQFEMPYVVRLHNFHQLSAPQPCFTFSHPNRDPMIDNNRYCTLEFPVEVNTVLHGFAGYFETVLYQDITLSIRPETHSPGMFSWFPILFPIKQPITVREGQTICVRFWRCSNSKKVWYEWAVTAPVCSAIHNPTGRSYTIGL
Sequence (Q9BQA1 whole entry partner): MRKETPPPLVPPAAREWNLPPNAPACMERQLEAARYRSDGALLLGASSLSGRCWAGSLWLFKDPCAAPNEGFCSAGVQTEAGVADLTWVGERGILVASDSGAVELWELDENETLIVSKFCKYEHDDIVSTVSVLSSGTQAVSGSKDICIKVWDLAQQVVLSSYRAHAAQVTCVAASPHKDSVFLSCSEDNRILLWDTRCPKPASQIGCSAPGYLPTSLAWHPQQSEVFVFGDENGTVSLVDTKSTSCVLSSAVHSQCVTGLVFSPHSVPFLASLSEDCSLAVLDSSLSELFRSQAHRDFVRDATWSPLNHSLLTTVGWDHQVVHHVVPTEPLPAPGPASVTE
Assay: PRMT5 IC50 assay in the presence of SAM as cofactor
Format: biochemical
pIC50: −log10 of the molar value.
Listed here are molecules together with their documented pIC50.

Molecule: Cc1ncoc1COc1cc2c(cc1F)CN(C[C@@H](O)CNC(=O)c1ccnc(NC3CCC3)c1)CC2 [Compound 266]
Target: PRMT5 (Homo sapiens, UniProt O14744)
pIC50: 6.30 to 7.30

Molecule: CC(C)(C)N1CCN(c2cc(C(=O)NC[C@H](O)CN3CCc4c(ccc(OCc5cnco5)c4Cl)C3)cc(NC3CCC3)n2)CC1 [Compound 319]
Target: PRMT5 (Homo sapiens, UniProt O14744)
pIC50: 6.30 to 7.30

Molecule: CC(=O)N1CCC(Nc2cc(C(=O)NC[C@H](O)CN3CCc4c(ccc(OCc5conc5C)c4C)C3)ncn2)CC1 [Compound 264]
Target: PRMT5 (Homo sapiens, UniProt O14744)
pIC50: 5.30 to 6.30

Molecule: CC(=O)N1CCC(Nc2cc(C(=O)NC[C@H](O)CN3CCc4nc(OCc5cnco5)ccc4C3)ncn2)CC1 [Compound 412]
Target: PRMT5 (Homo sapiens, UniProt O14744)
pIC50: 5.30 to 6.30

Molecule: COCCN(C)c1cc(C(=O)NC[C@H](O)CN2CCc3cc(OCc4cnco4)ccc3C2)cc(NC2CCC2)n1 [Compound 369]
Target: PRMT5 (Homo sapiens, UniProt O14744)
pIC50: 5.30 to 6.30

Molecule: CC(=O)N1CCC(Nc2cc(C(=O)NC[C@H](O)CN3CCc4cc(OCc5ocnc5C)ccc4C3)cc(C(C)C)n2)CC1 [Compound 646]
Target: PRMT5 (Homo sapiens, UniProt O14744)
pIC50: 6.30 to 7.30

Molecule: O=C(NC[C@H](O)CN1CCc2cc(OCc3cnco3)ccc2C1)c1ccnc(NC2CN(C(=O)C3CC3)C2)c1 [Compound 563]
Target: PRMT5 (Homo sapiens, UniProt O14744)
pIC50: 6.30 to 7.30

Molecule: CCN1CCN(c2cc(C(=O)NC[C@H](O)CN3CCc4c(ccc(OCc5ocnc5C)c4C)C3)cc(NC3CCC3)n2)CC1 [Compound 394]
Target: PRMT5 (Homo sapiens, UniProt O14744)
pIC50: 6.30 to 7.30

Molecule: CC(=O)N1CCC(Nc2cc(C(=O)NC[C@H](O)CN3CCc4c(ccc(OCc5cnnn5C)c4C)C3)ncn2)CC1 [Compound 276]
Target: PRMT5 (Homo sapiens, UniProt O14744)
pIC50: 5.30 to 6.30

Molecule: COCCN(C)c1cc(NC2CCN(C(C)=O)CC2)cc(C(=O)NC[C@@H](O)CN2CCc3cc(OCc4ocnc4C)ccc3C2)c1 (single isomer, unassigned) [Compound 648]
Target: PRMT5 (Homo sapiens, UniProt O14744)
pIC50: 6.30 to 7.30

Molecule: CCCC(=O)N1CCC(Nc2cc(C(=O)NC[C@H](O)CN3CCc4cc(OCc5cnco5)ccc4C3)ccn2)CC1 [Compound 431]
Target: PRMT5 (Homo sapiens, UniProt O14744)
pIC50: 6.30 to 7.30

Molecule: Cc1c(OCc2cnco2)ccc2c1CCN(C[C@@H](O)CNC(=O)c1cc(NC3CCCCC3)ncn1)C2 [Compound 436]
Target: PRMT5 (Homo sapiens, UniProt O14744)
pIC50: 5.30 to 6.30

Molecule: CCN(C)c1nc(NC2COC2)cc(C(=O)NC[C@H](O)CN2CCc3c(ccc(OCc4ocnc4C)c3C)C2)n1 [Compound 477]
Target: PRMT5 (Homo sapiens, UniProt O14744)
pIC50: 6.30 to 7.30

Molecule: COc1ccc(C(=O)N2CCc3cc(C(=O)NC[C@H](O)CN4CCc5cc(OCc6ocnc6C)ccc5C4)ccc3C2)cc1 [Compound 498]
Target: PRMT5 (Homo sapiens, UniProt O14744)
pIC50: 6.30 to 7.30

Molecule: CC(=O)N1CCC(Nc2cc(C(=O)NC[C@H](O)CN3CCc4c(ccc(OCc5cnn[nH]5)c4Cl)C3)ncn2)CC1 [Compound 343]
Target: PRMT5 (Homo sapiens, UniProt O14744)
pIC50: 5.30 to 6.30

Molecule: CC(=O)N1CC(Nc2cc(C(=O)NC[C@H](O)CN3CCc4cc(OCc5cnco5)ccc4C3)nc(C(C)(C)C)n2)C1 [Compound 379]
Target: PRMT5 (Homo sapiens, UniProt O14744)
pIC50: 6.30 to 7.30

Molecule: Cc1ncoc1COc1ccc2c(c1)CCN(C[C@@H](O)CNC(=O)c1cc(Nc3cccnc3)nc(N3CCCCC3)c1)C2 [Compound 601]
Target: PRMT5 (Homo sapiens, UniProt O14744)
pIC50: 6.30 to 7.30

Molecule: Cc1c(OCc2cn[nH]c2)ccc2c1CCN(C[C@@H](O)CNC(=O)c1ccnc(NC3CCC3)c1)C2 [Compound 254]
Target: PRMT5 (Homo sapiens, UniProt O14744)
pIC50: 5.30 to 6.30

Molecule: COc1ccc(C(=O)N2CCc3cc(C(=O)NC[C@H](O)CN4CCc5cc(OCc6cnco6)ccc5C4)ccc3C2)cc1 [Compound 547]
Target: PRMT5 (Homo sapiens, UniProt O14744)
pIC50: 6.30 to 7.30

Molecule: CC(=O)N1CCC(Nc2cc(C(=O)NC[C@H](O)CN3CCc4nc(OCc5ocnc5C)ccc4C3)ccn2)CC1 [Compound 617]
Target: PRMT5 (Homo sapiens, UniProt O14744)
pIC50: 6.30 to 7.30

Molecule: CCN1CCN(c2cc(C(=O)NC[C@H](O)CN3CCc4c(ccc(OCc5cnco5)c4Cl)C3)cc(NC3CCC3)n2)CC1 [Compound 299]
Target: PRMT5 (Homo sapiens, UniProt O14744)
pIC50: 6.30 to 7.30

Molecule: COCCN(C)c1cc(C(=O)NC[C@H](O)CN2CCc3c(ccc(OCc4ocnc4C)c3C)C2)cc(NC2CCC2)n1 [Compound 437]
Target: PRMT5 (Homo sapiens, UniProt O14744)
pIC50: 6.30 to 7.30

Molecule: CC(=O)N1CC(Nc2cc(C(=O)NC[C@H](O)CN3CCc4cc(OCc5ocnc5C)ccc4C3)nc(C(C)(C)C)n2)C1 [Compound 564]
Target: PRMT5 (Homo sapiens, UniProt O14744)
pIC50: 6.30 to 7.30

Molecule: CC(C)C(=O)N1CCC(Nc2cc(C(=O)NC[C@H](O)CN3CCc4c(ccc(OCc5cnco5)c4Cl)C3)ccn2)CC1 [Compound 452]
Target: PRMT5 (Homo sapiens, UniProt O14744)
pIC50: 6.30 to 7.30

Molecule: Cc1c(OCc2cnco2)ccc2c1CCN(C[C@@H](O)CNC(=O)c1ccnc(NC3CC4(CCC4)C3)c1)C2 [Compound 473]
Target: PRMT5 (Homo sapiens, UniProt O14744)
pIC50: 6.30 to 7.30

Molecule: Cc1c(OCc2cnco2)cc(F)c2c1CCN(C[C@H](O)CNC(=O)c1ccnc(NC3CCC3)c1)C2 [Compound 332]
Target: PRMT5 (Homo sapiens, UniProt O14744)
pIC50: 5.30 to 6.30

Molecule: O=C(NC[C@H](O)CN1CCc2c(ccc(OCc3cnco3)c2Cl)C1)c1cc(NC2CCC2)nc(N2CCN(C(=O)C3CC3)CC2)c1 [Compound 571]
Target: PRMT5 (Homo sapiens, UniProt O14744)
pIC50: 6.30 to 7.30
